Where do the numbers come from? From patent US20260365628A1.

Can you tell me IC50 for the items I'm about to list?
system: hTSHR (Homo sapiens, UniProt P16473)
Construct: expressed in transfected cells
Sequence (P16473 21-764): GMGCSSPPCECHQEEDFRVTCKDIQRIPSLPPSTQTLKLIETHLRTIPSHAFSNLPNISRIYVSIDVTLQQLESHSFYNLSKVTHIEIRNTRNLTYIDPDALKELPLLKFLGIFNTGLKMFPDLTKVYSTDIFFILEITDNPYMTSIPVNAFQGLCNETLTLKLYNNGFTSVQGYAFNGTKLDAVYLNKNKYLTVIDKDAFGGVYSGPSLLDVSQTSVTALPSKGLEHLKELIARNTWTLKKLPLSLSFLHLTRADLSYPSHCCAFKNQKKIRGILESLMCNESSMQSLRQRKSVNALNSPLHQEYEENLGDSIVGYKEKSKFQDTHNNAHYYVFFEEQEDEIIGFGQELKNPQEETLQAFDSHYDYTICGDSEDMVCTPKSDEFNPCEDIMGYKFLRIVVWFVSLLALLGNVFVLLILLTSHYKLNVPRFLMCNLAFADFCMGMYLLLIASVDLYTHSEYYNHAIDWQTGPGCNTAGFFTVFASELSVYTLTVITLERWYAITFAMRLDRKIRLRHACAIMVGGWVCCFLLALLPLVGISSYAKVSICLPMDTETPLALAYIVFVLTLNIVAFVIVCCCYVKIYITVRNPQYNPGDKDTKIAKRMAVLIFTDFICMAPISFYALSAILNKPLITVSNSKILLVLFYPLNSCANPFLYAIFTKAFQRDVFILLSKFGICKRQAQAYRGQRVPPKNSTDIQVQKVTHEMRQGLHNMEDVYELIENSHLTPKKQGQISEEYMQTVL
assay_notes: hTSHR TR-FRET cAMP Assay (inhibition of M22-stimulated cAMP production)
Type: cell-based
setup_conditions: Expi293F Inducible cells stably expressing hTSHR; cAMP HTRF; stimulated with EC80 of anti-TSHR antibody M22; 15 min compound preincubation, 30 min at 37° C.; read-out: Activity (IC50 bins)

Look at this compound and give its reported IC50. C[C@@H](c1ccc(Cl)c(Cl)c1)n1c(=O)cnc2cc(NC(=O)NC(C)(C)C)ccc21
100 to 1000 nM

Look at this compound and give its reported IC50. C[C@H]1Oc2nc(NC(=O)NC(C)(C)C)c(C(F)(F)F)cc2N([C@@H](C)c2ccccc2)C1=O
< 100 nM

Look at this compound and give its reported IC50. C[C@H]1Oc2cc(NC(=O)NC(C)(C)C)ccc2N(Cc2csc(C(F)(F)F)n2)C1=O
100 to 1000 nM

Look at this compound and give its reported IC50. C[C@H]1Oc2cc(NC(=O)NC(C)(C)C)ccc2N([C@@H](C)c2cccc(Cl)c2)C1=O
< 100 nM

* * *

system: hTSHR (Homo sapiens, UniProt P16473)
Construct: expressed in transfected cells
assay_notes: hTSHR TR-FRET cAMP Assay (inhibition of M22-stimulated cAMP production)
Format: cell-based
setup_conditions: Expi293F Inducible cells stably expressing hTSHR; cAMP HTRF; stimulated with EC80 of anti-TSHR antibody M22; 15 min compound preincubation, 30 min at 37° C.; read-out: Activity (IC50 bins)
pIC50: −log10 of the molar value.
Can you tell me pIC50 for the items I'm about to list?

Query pIC50 on hTSHR (Homo sapiens, UniProt P16473) for C[C@@H](c1cccc(CC(F)(F)F)n1)n1c(=O)cnc2cc(NC(=O)NC(C)(C)C)ccc21
6.00 to 7.00

Query pIC50 on hTSHR (Homo sapiens, UniProt P16473) for C[C@@H](c1ccccc1)N1C(=O)CCc2cc(NC(=O)NC(C)(C)C)c(C(F)(F)F)cc21
> 7.00

Query pIC50 on hTSHR (Homo sapiens, UniProt P16473) for C[C@H]1Oc2cc(NC(=O)NC(C)(C)C)ccc2N(Cc2cc(F)ccc2F)C1=O
> 7.00

Query pIC50 on hTSHR (Homo sapiens, UniProt P16473) for C[C@H](c1cccc(Cl)c1)N1C(=O)COc2cc(NC(=O)NC(C)(C)C)ccc21
< 6.00

* * *

system: hTSHR (Homo sapiens, UniProt P16473)
Construct: expressed in transfected cells
assay_notes: hTSHR TR-FRET cAMP Assay (inhibition of M22-stimulated cAMP production)
Assay type: cell-based
setup_conditions: Expi293F Inducible cells stably expressing hTSHR; cAMP HTRF; stimulated with EC80 of anti-TSHR antibody M22; 15 min compound preincubation, 30 min at 37° C.; read-out: Activity (IC50 bins)
measurement_name: IC50

Look at this molecule and give its reported IC50. C[C@H]1Oc2cc(NC(=O)NC3(C)CCCC3)ccc2N(Cc2cccc(C(F)(F)F)n2)C1=O [Example 227]
< 100 nM

Look at this molecule and give its reported IC50. Cc1cccc(CN2C(=O)COc3cc(NC(=O)NC(C)(C)C)ccc32)c1 [Example 40]
< 100 nM

Look at this molecule and give its reported IC50. C[C@H]1Oc2cc(NC(=O)NC(C)(C)C)ccc2N([C@@H](C)c2ccccc2Cl)C1=O [Example 189]
< 100 nM

Look at this molecule and give its reported IC50. C[C@@H](c1cccc2c1CCOC2)n1c(=O)cnc2cc(NC(=O)NC(C)(C)C)ccc21 [Example 124]
> 1000 nM

Look at this molecule and give its reported IC50. CC(C)(C)NC(=O)Nc1ccc2c(c1)CCC(=O)N2Cc1ccccn1 [Example 2]
> 1000 nM

Look at this molecule and give its reported IC50. C[C@@H](c1cccc(OC(F)(F)F)c1)n1c(=O)cnc2cc(NC(=O)CCc3cccc(C(F)(F)F)c3)ccc21 [Example 202]
< 100 nM

Look at this molecule and give its reported IC50. C[C@H]1Oc2cc(NC(=O)NC3CCC(F)(F)CC3)ccc2N([C@@H](C)c2ccccc2)C1=O [Example 258]
100 to 1000 nM

Look at this molecule and give its reported IC50. C[C@@H](c1cccc(CC(F)(F)F)c1)n1c(=O)cnc2cc(NC(=O)NC(C)(C)C)ccc21 [Example 102]
100 to 1000 nM

Look at this molecule and give its reported IC50. C[C@H]1Oc2cc(NC(=O)NC(C)(C)C)ccc2N([C@@H](C)c2cccc(C(F)(F)F)n2)C1=O [Example 186]
< 100 nM

Look at this molecule and give its reported IC50. CC1(C)CCCC1C(=O)Nc1ccc2c(c1)ncc(=O)n2Cc1ccccc1 (stereo not shown) [Example 308]
100 to 1000 nM

Look at this molecule and give its reported IC50. C[C@@H](c1cccc(OC(F)(F)F)c1)n1c(=O)cnc2c(Cl)c(NC(=O)NC(C)(C)C)ccc21 [Example 218]
100 to 1000 nM

Look at this molecule and give its reported IC50. C[C@H]1Oc2c(cc(C#N)c(NC(=O)NC(C)(C)C)c2F)N(Cc2ccccc2)C1=O [Example 369]
< 100 nM

Look at this molecule and give its reported IC50. C[C@@H](c1cccc(CCOCC(C)(C)O)c1)n1c(=O)cnc2cc(NC(=O)NC(C)(C)C)ccc21 [Example 121]
> 1000 nM

Look at this molecule and give its reported IC50. C[C@@H](c1cccc(CCOc2cn[nH]c2)c1)n1c(=O)cnc2cc(NC(=O)NC(C)(C)C)ccc21 [Example 119]
> 1000 nM

Look at this molecule and give its reported IC50. CC(C)(CO)CNC(=O)Nc1ccc2c(c1)ncc(=O)n2Cc1cccc(OC(F)(F)F)c1 [Example 242]
> 1000 nM

Look at this molecule and give its reported IC50. C[C@H]1Oc2c(cc(F)c(NC(=O)NC(C)(C)C)c2F)N(Cc2ccccc2)C1=O [Example 329]
100 to 1000 nM

Look at this molecule and give its reported IC50. C[C@@H]1Oc2nc(NC(=O)NC(C)(C)C)ccc2N(Cc2cccc(Cl)c2)C1=O [Example 286]
> 1000 nM

Look at this molecule and give its reported IC50. C[C@H]1Oc2cc(NC(=O)NC(C)(C)C)c(C(F)(F)F)cc2N(Cc2ccccc2)C1=O [Example 330]
< 100 nM

Look at this molecule and give its reported IC50. COCC1(NC(=O)Nc2ccc3c(c2)O[C@H](C)C(=O)N3[C@@H](C)c2ccccc2)CCC1 [Example 261]
100 to 1000 nM

Look at this molecule and give its reported IC50. C[C@@H](c1cccc(C(F)(F)F)c1)n1c(=O)cnc2cc(NC(=O)NC(C)(C)C)ccc21 [Example 99]
100 to 1000 nM

Look at this molecule and give its reported IC50. CC(C)(C)NC(=O)Nc1ccc2c(c1)ncc(=O)n2Cc1cccc2c1OCCC2 [Example 96]
100 to 1000 nM

Look at this molecule and give its reported IC50. CC(C)(NC(=O)Nc1ccc2c(c1)ncc(=O)n2Cc1ccccc1)C(F)F [Example 199]
100 to 1000 nM

Look at this molecule and give its reported IC50. CC(c1cc(C(F)(F)F)ccn1)n1c(=O)cnc2cc(NC(=O)NC3(C)CCC3)ccc21 (stereo not shown) [Example 337]
100 to 1000 nM

Look at this molecule and give its reported IC50. C[C@H]1Oc2cc(NC(=O)NC(C)(C)C)ccc2N([C@@H](C)c2ccnc(C(F)(F)F)n2)C1=O (single isomer, unassigned) [Example 310]
100 to 1000 nM

Look at this molecule and give its reported IC50. C[C@H]1Oc2cc(NC(=O)NC(C)(C)C)ccc2N(Cc2cccc([C@H](O)C(F)(F)F)c2)C1=O [Example 175]
100 to 1000 nM

Look at this molecule and give its reported IC50. C[C@@H](c1cccc([C@@H](O)C(F)(F)F)n1)n1c(=O)cnc2cc(NC(=O)NC(C)(C)C)ccc21 [Example 153]
100 to 1000 nM

Look at this molecule and give its reported IC50. CC(C)(C)NC(=O)Nc1ccc2c(c1)CCC(=O)N2C1CCOc2ccccc21 (stereo not shown) [Example 298]
> 1000 nM

Look at this molecule and give its reported IC50. CC(c1cccc(CCC2COC2)c1)n1c(=O)cnc2cc(NC(=O)NC(C)(C)C)ccc21 (stereo not shown) [Example 248]
> 1000 nM

Look at this molecule and give its reported IC50. C[C@@H](c1ccccc1)N1C(=O)CCc2cc(NC(=O)NC(C)(C)C)ccc21 [Example 13]
< 100 nM

Look at this molecule and give its reported IC50. CCC(c1ccccc1)N1C(=O)CCc2cc(NC(=O)NC(C)(C)C)ccc21 (stereo not shown) [Example 28]
> 1000 nM

Look at this molecule and give its reported IC50. C[C@@H](c1cccc(OC(F)(F)F)c1)n1c(=O)cnc2cc(NC(=O)NC(C)(C)C(F)(F)F)ccc21 [Example 208]
100 to 1000 nM
